Listing: Inhibition of binding (%) of selected binders
systemName: T1, hCMV gH + gL + UL128 + UL130 + UL131A (5-member complex; HEK293T co-transfectant) (hCMV, UniProt P12824 24-743; P16832 31-278; P16837 1-171; P16772 1-214)
T1 construct: whole, on cells; in the functional rows it stands for the complex on virions or transduced cells of the strain or isolate named in the readout; also called gH/gL/UL128-131A complex; pentameric complex
protocolDetails: cell competition; competitor 4I22-biotin
Give the quantity in %, number only.

Worked cases, answers included:
>>> experimentalvalue("8C15 (antibody, V domains shown, human IgG; also called 8C15-biotin) VH: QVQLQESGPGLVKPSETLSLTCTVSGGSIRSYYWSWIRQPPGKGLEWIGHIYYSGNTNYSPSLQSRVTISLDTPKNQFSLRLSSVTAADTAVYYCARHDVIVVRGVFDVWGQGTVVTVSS VL: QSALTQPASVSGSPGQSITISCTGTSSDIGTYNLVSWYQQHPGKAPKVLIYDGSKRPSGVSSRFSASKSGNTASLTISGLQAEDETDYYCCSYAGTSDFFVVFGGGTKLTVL")
0
>>> experimentalvalue("8J16 (antibody, V domains shown, human IgG; also called 8J16-biotin) VH: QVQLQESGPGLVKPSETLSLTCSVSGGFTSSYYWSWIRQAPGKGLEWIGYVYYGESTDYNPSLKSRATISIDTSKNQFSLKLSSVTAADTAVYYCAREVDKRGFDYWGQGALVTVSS VL: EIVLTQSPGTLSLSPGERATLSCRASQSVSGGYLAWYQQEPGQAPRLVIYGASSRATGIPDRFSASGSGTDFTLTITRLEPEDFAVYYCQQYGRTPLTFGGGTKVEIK")
0
>>> experimentalvalue("9I6 (antibody, V domains shown, human IgG; also called 9I6-biotin; 916) VH: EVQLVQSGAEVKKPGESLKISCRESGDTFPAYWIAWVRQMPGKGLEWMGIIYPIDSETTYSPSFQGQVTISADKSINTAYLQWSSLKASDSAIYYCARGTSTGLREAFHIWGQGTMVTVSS VL: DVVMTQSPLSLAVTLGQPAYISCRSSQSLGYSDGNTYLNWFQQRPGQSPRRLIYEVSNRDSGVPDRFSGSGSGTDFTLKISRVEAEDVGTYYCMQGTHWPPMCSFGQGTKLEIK")
0

Look up Inhibition of binding (%): 10P3 (antibody, V domains shown, human IgG) VH: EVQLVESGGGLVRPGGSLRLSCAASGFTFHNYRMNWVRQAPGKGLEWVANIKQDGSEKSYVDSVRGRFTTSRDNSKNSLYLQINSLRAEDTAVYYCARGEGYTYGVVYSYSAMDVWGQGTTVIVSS VL: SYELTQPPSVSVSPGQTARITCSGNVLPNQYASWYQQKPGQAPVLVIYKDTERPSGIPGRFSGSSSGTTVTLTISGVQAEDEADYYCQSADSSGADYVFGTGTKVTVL 0

Query (binder): 15D8 (antibody, V domains shown, human IgG; also called 15D8-biotin) VH: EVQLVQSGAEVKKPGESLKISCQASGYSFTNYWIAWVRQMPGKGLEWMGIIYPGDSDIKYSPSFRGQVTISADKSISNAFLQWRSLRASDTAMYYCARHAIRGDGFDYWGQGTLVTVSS VL: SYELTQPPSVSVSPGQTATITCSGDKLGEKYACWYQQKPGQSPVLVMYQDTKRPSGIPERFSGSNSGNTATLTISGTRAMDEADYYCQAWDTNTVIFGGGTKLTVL ; field requested: Inhibition of binding (%) 0

Any idea what its Inhibition of binding (%) is? The binder is 4N10 (antibody, V domains shown, human IgG; also called 4N10-biotin) VH: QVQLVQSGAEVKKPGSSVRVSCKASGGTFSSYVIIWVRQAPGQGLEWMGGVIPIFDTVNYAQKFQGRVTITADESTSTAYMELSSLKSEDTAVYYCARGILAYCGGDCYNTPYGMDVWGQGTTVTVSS VL: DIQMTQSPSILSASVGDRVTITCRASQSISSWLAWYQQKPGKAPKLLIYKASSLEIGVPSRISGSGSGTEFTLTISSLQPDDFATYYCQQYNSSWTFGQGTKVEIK 0

Form field: reported Inhibition of binding (%) of 4I22 (antibody, human IgG1, V domains shown, fully human IgG1 with unaltered Fc; also called 4I22-biotin; 4122) VH: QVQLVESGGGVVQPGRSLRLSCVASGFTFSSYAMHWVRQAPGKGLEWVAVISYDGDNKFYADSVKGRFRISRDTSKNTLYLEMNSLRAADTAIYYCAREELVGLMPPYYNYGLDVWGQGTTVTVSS VL: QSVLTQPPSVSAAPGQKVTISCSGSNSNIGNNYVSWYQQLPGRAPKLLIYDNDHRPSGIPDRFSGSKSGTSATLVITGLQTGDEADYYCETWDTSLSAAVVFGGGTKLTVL 100

Quick one: Inhibition of binding (%) of 2C12 (antibody, V domains shown, human IgG; also called 2C12-biotin) VH: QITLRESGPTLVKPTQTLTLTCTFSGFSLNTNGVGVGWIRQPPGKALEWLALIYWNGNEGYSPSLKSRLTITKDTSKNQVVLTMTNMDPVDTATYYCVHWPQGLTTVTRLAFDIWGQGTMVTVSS VL: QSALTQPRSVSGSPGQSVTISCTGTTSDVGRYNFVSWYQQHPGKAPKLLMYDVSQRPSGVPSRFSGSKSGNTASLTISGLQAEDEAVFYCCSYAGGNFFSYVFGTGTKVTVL ? 0

State the recorded Inhibition of binding (%) for this entry: 10F7 (antibody, V domains shown, human IgG; also called 10F7-biotin) VH: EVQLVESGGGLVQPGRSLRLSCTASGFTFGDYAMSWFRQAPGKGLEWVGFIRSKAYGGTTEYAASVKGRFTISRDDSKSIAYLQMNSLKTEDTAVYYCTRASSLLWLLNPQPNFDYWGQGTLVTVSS VL: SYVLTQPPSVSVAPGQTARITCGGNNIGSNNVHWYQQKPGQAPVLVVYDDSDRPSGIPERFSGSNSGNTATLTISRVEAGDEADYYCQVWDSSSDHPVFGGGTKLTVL 100
